Cited source: ChEMBL document CHEMBL3769312

target: Transient receptor potential cation channel subfamily V member 1 (Homo sapiens); assay: Displacement of [3H]RTX from human TRPV1 expressed in CHO cells after 60 mins by scintillation counting analysis; format: cell-based; details: read-out: Ki
Sequence (Q8NER1 whole entry): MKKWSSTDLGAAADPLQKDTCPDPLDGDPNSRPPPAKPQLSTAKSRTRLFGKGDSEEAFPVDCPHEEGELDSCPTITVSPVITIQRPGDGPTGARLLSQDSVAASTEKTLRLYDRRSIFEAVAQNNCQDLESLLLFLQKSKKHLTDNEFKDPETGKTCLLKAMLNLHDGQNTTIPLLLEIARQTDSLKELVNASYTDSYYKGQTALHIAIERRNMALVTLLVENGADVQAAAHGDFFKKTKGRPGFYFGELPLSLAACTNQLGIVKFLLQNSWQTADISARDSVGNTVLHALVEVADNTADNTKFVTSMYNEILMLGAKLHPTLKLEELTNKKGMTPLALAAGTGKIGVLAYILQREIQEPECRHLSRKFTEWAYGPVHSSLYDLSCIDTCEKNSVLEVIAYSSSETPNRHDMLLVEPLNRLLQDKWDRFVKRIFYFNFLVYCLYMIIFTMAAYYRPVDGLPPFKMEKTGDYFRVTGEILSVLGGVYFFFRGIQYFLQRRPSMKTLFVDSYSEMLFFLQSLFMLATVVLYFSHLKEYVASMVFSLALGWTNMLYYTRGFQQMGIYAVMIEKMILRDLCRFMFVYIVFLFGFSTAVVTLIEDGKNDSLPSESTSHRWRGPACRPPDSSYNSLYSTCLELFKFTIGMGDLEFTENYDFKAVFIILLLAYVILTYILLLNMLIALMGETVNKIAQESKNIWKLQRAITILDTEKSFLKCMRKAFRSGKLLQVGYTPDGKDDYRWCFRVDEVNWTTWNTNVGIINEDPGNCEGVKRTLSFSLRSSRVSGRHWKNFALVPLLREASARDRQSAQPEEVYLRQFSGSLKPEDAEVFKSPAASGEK
pKi: −log10 of the molar value.
quantityKind: pKi

A: CC(C(=O)NCc1ccc(C(F)(F)F)nc1N(c1ccccc1)S(=O)(=O)c1ccccc1)c1ccc(NS(C)(=O)=O)c(F)c1 (configuration not stated)
B: CC(C(=O)NCc1ccc(C(F)(F)F)nc1N(Cc1ccccc1)S(=O)(=O)c1ccc(F)cc1)c1ccc(NS(C)(=O)=O)c(F)c1 (configuration not stated)
For A and B , which recorded pKi is lower? Mark your answer with the label of the selected entry.
A

P: CC(C(=O)NCc1ccc(C(F)(F)F)nc1N(c1ccc(F)cc1)S(=O)(=O)c1ccccc1)c1ccc(NS(C)(=O)=O)c(F)c1 (configuration not stated)
Q: CC(C(=O)NCc1ccc(C(F)(F)F)nc1N(CC1CCCCC1)S(=O)(=O)c1ccccc1)c1ccc(NS(C)(=O)=O)c(F)c1 (configuration not stated)
R: CC(C(=O)NCc1ccc(C(F)(F)F)nc1N(Cc1ccccc1)S(C)(=O)=O)c1ccc(NS(C)(=O)=O)c(F)c1 (configuration not stated)
Rank the 3 compounds: largest pKi first, smallest last. Dear reader, please state the labels in the requested order.
Q, P, R
